# experimental.protocol: The drug is tested on Odoribacter splanchnicus strain: fecal isolate for biotransformation. The drug concentrations were measured before and after a 12-h incubation by liquid-chromatography-coupled mass spectrometry (LC–MS)
# conditions: 2 µM
result.type: Bacterial Biotransformation

Guide cases for Bacterial Biotransformation, answers given:
| molecule | Bacterial Biotransformation |
| --- | --- |
| CC(=O)O[C@]1(C(C)=O)CC[C@H]2[C@@H]3C=C(Cl)C4=CC(=O)[C@@H]5C[C@@H]5[C@]4(C)[C@H]3CC[C@@]21C [CYPROTERONE ACETATE] | Compound metabolized |
| CN[C@H]1CC[C@@H](c2ccc(Cl)c(Cl)c2)c2ccccc21 | Compound NOT metabolized |
| CN(C)C(=O)Oc1cc(OC(=O)N(C)C)cc(C(O)CNC(C)(C)C)c1 (configuration not stated) | Compound NOT metabolized |
| CCN(CC)CCNC(=O)c1cc(Cl)c(N)cc1OC [METOCLOPRAMIDE] | Compound NOT metabolized |
| CN1[C@@H]2CC[C@H]1C[C@@H](OC(=O)c1c[nH]c3ccccc13)C2 | Compound NOT metabolized |

Count: 2. Required value per item: Bacterial Biotransformation.
1. CCCC1O[C@@H]2C[C@H]3[C@@H]4CCC5=CC(=O)C=C[C@]5(C)[C@H]4[C@@H](O)C[C@]3(C)[C@]2(C(=O)CO)O1 (some centres not stated) [BUDESONIDE]
2. CCN(CC)CCNC(C(=O)OCCC(C)C)c1ccccc1.Cl.Cl (configuration not stated)

// result
["Compound metabolized", "Compound NOT metabolized"]

---

# experimental.protocol: The drug is tested on Bacteroides sp. WH2 strain: WH2 for biotransformation. The drug concentrations were measured before and after a 12-h incubation by liquid-chromatography-coupled mass spectrometry (LC–MS)
# conditions: bacteroides sp. wh2, 12 h, 2 µM
result.type: Bacterial Biotransformation

Guide cases for Bacterial Biotransformation, answers given:
| molecule | experimental.value |
| --- | --- |
| COc1ccnc(C[S+]([O-])c2nc3ccc(OC(F)F)cc3[nH]2)c1OC (centres undefined) | Compound metabolized |
| CN1CCC(=C2c3ccccc3CCc3cccnc32)CC1.O=C(O)/C=C\C(=O)O.O=C(O)/C=C\C(=O)O [AZATADINE MALEATE] | Compound NOT metabolized |
| Br.CN(C)CCCC1(c2ccc(F)cc2)OCc2cc(C#N)ccc21 (centres undefined) [CITALOPRAM HYDROBROMIDE] | Compound NOT metabolized |
| CC[C@H](C)C(=O)O[C@H]1CCC=C2C=C[C@H](C)[C@H](CC[C@@H]3C[C@@H](O)CC(=O)O3)[C@H]21 | Compound metabolized |
| CC(C)c1c(CN(C)C(C)Cc2ccccc2)n(C)n(-c2ccccc2)c1=O (centres undefined) | Compound metabolized |

Count: 5. Required value per item: Bacterial Biotransformation.
1. COC(=O)C(c1ccccc1)C1CCCCN1 (centres undefined) [METHYLPHENIDATE]
2. Nc1ccc(/N=N/c2ccccc2)c(N)n1
3. CNCCC(Oc1ccc(C(F)(F)F)cc1)c1ccccc1 (centres undefined)
4. CN1CCN(C(=O)O[C@H]2c3nccnc3C(=O)N2c2ccc(Cl)cn2)CC1
5. CC(C)(C#N)c1cc(Cn2cncn2)cc(C(C)(C)C#N)c1

// result
Compound NOT metabolized
Compound metabolized
Compound metabolized
Compound NOT metabolized
Compound NOT metabolized
